// Stability (%) Freeze-thaw stability lookup, one value per entry
Test: Stability of the analytes in rat plasma samples (freeze-thaw, short-term, long-term, autosampler)
Type: in vitro ADME
Conditions: concentration 100 (µg/mL), three freeze-thaw cycles, n = 3

[
  {
    "compound": "COc1ccc(-c2coc3cc(O[C@@H]4O[C@H](CO)[C@@H](O)[C@H](O)[C@H]4O)ccc3c2=O)cc1",
    "unit.text": "%",
    "Stability (%) Freeze-thaw stability": 4.2
  },
  {
    "compound": "CC(C)(O)[C@@H]1CC[C@](C)([C@H]2[C@@H](O)C[C@@]3(C)[C@@H]4C[C@H](O[C@@H]5O[C@H](CO)[C@@H](O)[C@H](O)[C@H]5O)[C@H]5C(C)(C)[C@@H](O[C@@H]6OC[C@@H](O)[C@H](O)[C@H]6O)CC[C@@]56C[C@@]46CC[C@]23C)O1 [Astragaloside IV, astragaloside IV]",
    "unit.text": "%",
    "Stability (%) Freeze-thaw stability": 6.1
  },
  {
    "compound": "COc1ccc(-c2coc3cc(O)ccc3c2=O)cc1O",
    "unit.text": "%",
    "Stability (%) Freeze-thaw stability": 8.6
  },
  {
    "compound": "CC(=O)OC1C(O)COC(OC2CCC34CC35CCC3(C)C(C6(C)CCC(C(C)(C)O)O6)C(O)CC3(C)C5CC(OC3OC(CO)C(O)C(O)C3O)C4C2(C)C)C1OC(C)=O (stereo not shown) [Astragaloside I, astragaloside I]",
    "unit.text": "%",
    "Stability (%) Freeze-thaw stability": "−1.8"
  }
]
